Ref: ChEMBL document CHEMBL3112479

system: Candida albicans; experiment: Antimicrobial activity against Candida albicans 7535 after 20 hrs by two-fold serial dilution technique; assay type: functional; conditions: Candida albicans, 7535, 20 h
Property: MIC (µg/mL)
Your answer should be a plain number; it is taken to be in µg/mL.

COc1c(N2C[C@@H]3CCCN[C@@H]3C2)c(F)cc2c(=O)c(C(=O)O)cn(C3CC3)c12 | 0.5
Cc1ccc(-c2nnc(CN3C(=O)CSC3=S)o2)cc1 | 64
O=C1CSC(=S)N1Cc1nnc(-c2cccc(Br)c2)o1 | 32
Cc1ccccc1-c1nnc(CN2C(=O)CSC2=S)o1 | 64
O=C1CSC(=S)N1Cc1nnc(-c2ccc(Br)cc2)o1 | 64

# MIC lookup, item O=C1CSC(=S)N1Cc1nnc(-c2ccccc2F)o1
64

# MIC lookup, item O=C1CSC(=S)N1Cc1nnc(-c2ccccc2)o1
64

# MIC lookup, item O=C1CSC(=S)N1Cc1nnc(-c2cccc(Cl)c2)o1
32

# MIC lookup, item COc1c(N2CCNC(C)C2)c(F)cc2c(=O)c(C(=O)O)cn(C3CC3)c12 (stereo not drawn)
0.5
